- measurement target: Tyrosine-protein phosphatase non-receptor type 11 (Homo sapiens, UniProt Q06124)
- Sequence (Q06124 whole entry): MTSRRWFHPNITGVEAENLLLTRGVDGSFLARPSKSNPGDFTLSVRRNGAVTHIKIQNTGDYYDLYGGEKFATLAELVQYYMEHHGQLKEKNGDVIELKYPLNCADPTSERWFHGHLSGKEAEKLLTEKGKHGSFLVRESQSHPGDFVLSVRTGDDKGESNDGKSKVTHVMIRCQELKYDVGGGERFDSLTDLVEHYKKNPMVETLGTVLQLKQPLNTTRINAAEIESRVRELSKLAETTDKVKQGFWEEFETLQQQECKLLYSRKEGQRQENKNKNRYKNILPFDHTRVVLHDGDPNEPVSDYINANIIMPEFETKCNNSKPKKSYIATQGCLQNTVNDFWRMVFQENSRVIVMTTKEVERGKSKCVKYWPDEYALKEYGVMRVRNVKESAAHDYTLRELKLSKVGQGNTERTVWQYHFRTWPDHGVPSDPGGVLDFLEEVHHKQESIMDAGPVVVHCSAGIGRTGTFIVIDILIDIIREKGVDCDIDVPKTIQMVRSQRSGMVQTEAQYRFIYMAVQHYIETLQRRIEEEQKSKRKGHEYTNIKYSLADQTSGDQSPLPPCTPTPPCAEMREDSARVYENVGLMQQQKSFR
- experiment notes: Antagonist activity at SHP2 in human KYSE520 cells assessed as inhibition of ERK1/2 phosphorylation incubated for 2 hrs
- Assay type: cell-based
The label is criterion met for IC50 below 5 nM and criterion not met for IC50 equal to or exceeding 5 nM.

{"chemical smiles": "Cc1c(N2CCC3(CC2)Oc2ccccc2[C@H]3N)nc(C)n(-c2cccc(Cl)c2Cl)c1=O", "group label": "criterion not met"}
{"chemical smiles": "Cc1c(N2CCC3(CC2)Cc2ccccc2[C@H]3N)nc(C)n(-c2cccc(Cl)c2Cl)c1=O", "group label": "criterion met"}
{"chemical smiles": "Cc1c(F)ccc(-n2c(C)nc(N3CCC4(CC3)Cc3ccccc3[C@H]4N)c(C)c2=O)c1Cl", "group label": "criterion not met"}
{"chemical smiles": "Cc1c(N2CCC3(CC2)Cc2ccccc2[C@H]3N)nc(C)n(-c2ccc(F)c(Cl)c2Cl)c1=O", "group label": "criterion met"}

* * *

- measurement target: Tyrosine-protein phosphatase non-receptor type 11 (Homo sapiens, UniProt Q06124)
- experiment notes: Antagonist activity at recombinant human N-terminal His6-tagged full length SHP2 expressed in Escherichia coli using DiFMUP as substrate measured after 60 mins in presence of IRS1-2pY peptide by fluorescence assay
pIC50: −log10 of the molar value.
endpoint name: pIC50

{"chemical smiles": "Cc1c(N2CCC3(CC2)Cc2ncccc2[C@@H]3N)nc(C)n(-c2cccc(Cl)c2Cl)c1=O", "endpoint name": "pIC50", "experimental value": 9.00}
